Task for the reader: assign each of the following compounds its reported IC50.
# System: K562
# assay text: Cytotoxicity against human K562 cells after 6 days by MTS assay
# condition notes: K562, 144 h
Provide the reading as a plain figure in µg/mL.

Request: Look up IC50 for this compound: CC(C)[C@@H]1OC(C)(C)O[C@@H]1C[C@@H](C)[C@H]1[C@@H](O)C[C@H]2[C@@H]3C[C@@H](O)[C@H]4C[C@@H](O)CC[C@]4(C)[C@H]3CC[C@]12C
Response: 8.5

Request: Also, CC(C)[C@H](O)[C@H](O)C[C@@H](C)[C@H]1[C@@H](O)C[C@H]2[C@@H]3C[C@@H](O)[C@H]4C[C@@H](O)CC[C@]4(C)[C@H]3CC[C@]12C please.
Response: 7
